Tested on: RSV A2
Assay: RSV antiviral cytopathic effect (CPE) assay, MTT readout
Type: cell-based
Details: human respiratory syncytial virus, HEp-2, 120 h; RSV A2 in HEp2 cells, CPE assay, MTT, approx. 5 days; read-out: Activity Range (RSV A2 antiviral EC50), compounds of Table 2
attributeMeasured: EC50

Cc1cc(C(=O)N2CCN3C(=O)c4ccccc4C32c2ccc(Cl)cc2)c(C)o1 (centres unmarked) = < 0.1 µg/mL
COc1ccc(CC(=O)N2CCN3C(=O)c4ccccc4C23c2ccc(F)cc2)cc1 (centres unmarked) = 0.25 to 1 µg/mL

Provide value of EC50 for this record tested with RSV A2: O=C(Cc1cccc(Br)c1)N1CCN2C(=O)c3ccccc3C12c1ccc(Cl)cc1 (centres unmarked)
0.1 to 0.25 µg/mL

Provide value of EC50 for this record tested with RSV A2: Cc1ccc(C23c4ccccc4C(=O)N2CCN3C(=O)NCc2ccc(F)cc2)cc1 (centres unmarked)
< 0.1 µg/mL

Provide value of EC50 for this record tested with RSV A2: N#CCCCOc1ccc(C23c4ccccc4C(=O)N2CCN3C(=O)c2ccc(F)cc2)cc1 (centres unmarked)
0.1 to 0.25 µg/mL

====

System: RSV A2
Assay: RSV antiviral cytopathic effect (CPE) assay, MTT readout
Assay type: cell-based
Conditions: human respiratory syncytial virus, HEp-2, 120 h; RSV A2 in HEp2 cells, CPE assay, MTT, approx. 5 days; read-out: Activity Range (RSV A2 antiviral EC50), compounds of Table 2
EC50: recorded values

Some entries whose results are on file:
O=C(c1ccc(F)nc1)N1CCN2C(=O)c3ccccc3C12c1ccc(F)cc1 (stereo not drawn) = 0.1 to 0.25 µg/mL
CCCc1ccc(C23c4ccccc4C(=O)N2CCN3C(=O)c2ccc(F)cc2)cc1 (stereo not drawn) = < 0.1 µg/mL

Attention now turns to another entry.
Item under review: O=C(c1ccc(F)cc1)N1CCN2C(=O)c3ccccc3C12c1ccc(OCCCCl)cc1 (stereo not drawn) . Reported EC50?
0.1 to 0.25 µg/mL

Origin of measurements: patent US8598193B2
